In this section we review reported fraction of GFP-LC3-positive cells values for a set of molecules.
# Test system: CbCln3 Δex7/8/Δex7/8 GFP-LC3 cerebellar neuronal cells
# test summary: fraction of GFP-LC3-positive cells (≥5 vesicles/cell); higher = more autophagosome accumulation
The full ranking holds about 1,700 compounds; the median of “fraction of GFP-LC3-positive cells (≥5 vesicles/cell)” is about 0.43, and the highest 2% start at about 0.81. The list comes from a sample in which the highest values are over-represented; it also holds close analogues and randomly drawn compounds.

molecule: Cl.Cl.OCCN1CCN(CC/C=C2/c3ccccc3Sc3ccc(C(F)(F)F)cc32)CC1 [Flupentixol dihydrochloride cis-(Z)]
fraction of GFP-LC3-positive cells: 0.291
//
molecule: CN[C@@H]1C(O[C@H]2O[C@H](CO)[C@@H](N)[C@H](O)[C@H]2O)O[C@H]2C[C@@H](N)[C@@H](O[C@H]3[C@H](O)[C@@H](O)[C@H](N)C[C@@H]3N)OC2[C@@H]1O (some centres undefined)
fraction of GFP-LC3-positive cells: 0.274
//
molecule: CC(=O)OCOC(=O)CN(CC(=O)OCOC(C)=O)c1ccccc1OCCOc1ccccc1N(CC(=O)OCOC(C)=O)CC(=O)OCOC(C)=O
fraction of GFP-LC3-positive cells: 0.851
//
molecule: CC(=O)Oc1ccccc1C(=O)Oc1ccccc1C(=O)O
fraction of GFP-LC3-positive cells: 0.354

----------
In this section we review reported fraction of GFP-LC3-positive cells values for a set of compounds.
# Test system: CbCln3 Δex7/8/Δex7/8 GFP-LC3 cerebellar neuronal cells
# test summary: fraction of GFP-LC3-positive cells (≥5 vesicles/cell); higher = more autophagosome accumulation
Over roughly 1,700 compounds, “fraction of GFP-LC3-positive cells (≥5 vesicles/cell)” has its median near 0.43; the highest 2% begin near 0.81. The sample holds the highest values, similar compounds and a random draw of the others, so the mix is not that of the screen.

compound: CC[N+](C)(C)c1cccc(O)c1.[Cl-] [Edrophonium chloride]
fraction of GFP-LC3-positive cells: 0.407
--
compound: COc1cc2nc(N(C)CCCNC(=O)C3CCCO3)nc(N)c2cc1OC.Cl (stereo not drawn) [Alfuzosin hydrochloride]
fraction of GFP-LC3-positive cells: 0.474
--
compound: CC1/C=C/C=C/CC/C=C/C=C/C=C/C=C/C(O[C@@H]2O[C@H](C)[C@@H](O)[C@H](N)[C@@H]2O)CC(O)C(C(=O)O)C(O)CC(=O)CC(O)C(O)CCC(O)CC(O)CC(O)CC(=O)OC(C)C(C)C1O (stereo partly drawn)
fraction of GFP-LC3-positive cells: 0.294

----------
# Tested on: CbCln3 Δex7/8/Δex7/8 GFP-LC3 cerebellar neuronal cells
# test summary: fraction of GFP-LC3-positive cells (≥5 vesicles/cell); higher = more autophagosome accumulation
Over roughly 1,700 compounds, “fraction of GFP-LC3-positive cells (≥5 vesicles/cell)” has its median near 0.43; the highest 2% begin near 0.81. What follows is part of a selection rich in the highest values, with near analogues and random picks from the rest.

molecule: CCc1cc(C(N)=S)ccn1 [Ethionamide]
fraction of GFP-LC3-positive cells: 0.393
//
molecule: CC(C(=O)O)c1ccc(C(=O)c2ccccc2)s1 (configuration not stated)
fraction of GFP-LC3-positive cells: 0.467
//
molecule: CCCCC/C=C\C/C=C\CC1OC1C/C=C\CCCC(=O)O (configuration not stated)
fraction of GFP-LC3-positive cells: 0.41
//
molecule: O=C1Nc2ccc([N+](=O)[O-])cc2C1=O
fraction of GFP-LC3-positive cells: 0.469
//
molecule: NC(=O)c1cc[n+](CC2=C(C(=O)[O-])N3C(=O)[C@@H](NC(=O)[C@@H](c4ccccc4)S(=O)(=O)[O-])[C@H]3SC2)cc1.[Na+] [Cefsulodin sodium salt]
fraction of GFP-LC3-positive cells: 0.367
//
molecule: Oc1cc(O)c2c(c1)O[C@H](c1ccc(O)c(O)c1)[C@@H](O)C2 [Epicatechin-(-)]
fraction of GFP-LC3-positive cells: 0.438
//
molecule: O=C(O)CCCC[C@@H]1SC[C@@H]2NC(=O)N[C@@H]21
fraction of GFP-LC3-positive cells: 0.393

----------
# System: CbCln3 Δex7/8/Δex7/8 GFP-LC3 cerebellar neuronal cells
# test summary: fraction of GFP-LC3-positive cells (≥5 vesicles/cell); higher = more autophagosome accumulation
In all, about 1,700 compounds were measured (“fraction of GFP-LC3-positive cells (≥5 vesicles/cell)”: median about 0.43, highest 2% from about 0.81 on). What follows is part of a selection rich in the highest values, with near analogues and random picks from the rest.

compound: COc1cc2c3cc1Oc1c(OC)c(OC)cc4c1[C@@H](Cc1ccc(OC(=O)c5ccc([N+](=O)[O-])cc5)c(c1)Oc1ccc(cc1)C[C@@H]3N(C)CC2)N(C)CC4 [E6 berbamine]
fraction of GFP-LC3-positive cells: 0.834
--
compound: CN(CCc1ccc(Cl)c(Cl)c1)CC(O)COc1ccc(NS(C)(=O)=O)cc1 (configuration not stated)
fraction of GFP-LC3-positive cells: 0.503
--
compound: COc1ccc2cc1Oc1ccc(cc1)C[C@H]1c3cc(c(OC)cc3CCN1C)Oc1c(OC)c(OC)cc3c1[C@H](C2)N(C)CC3
fraction of GFP-LC3-positive cells: 0.746
--
compound: CN(C)CCCSC(=N)N.Cl.Cl [Dimaprit dihydrochloride]
fraction of GFP-LC3-positive cells: 0.45
--
compound: COc1ccc2cc1Oc1ccc(cc1)C[C@H]1c3cc(c(OC)cc3CCN1C)Oc1c(OC)c(OC)cc3c1[C@H](C2)N(C)CC3 [Tetrandrine]
fraction of GFP-LC3-positive cells: 0.679
--
compound: CCCCC[C@H](O)/C=C/C=C/C=C/[C@H](O)C/C=C\CCCC(=O)O [8(R),15(S)-DiHETE all trans]
fraction of GFP-LC3-positive cells: 0.298
--
compound: CCCCCCCCCCCCCCCCOC[C@H](COP(=O)([O-])OCC[N+](C)(C)C)OC(=O)NC
fraction of GFP-LC3-positive cells: 0.423

----------
# System: CbCln3 Δex7/8/Δex7/8 GFP-LC3 cerebellar neuronal cells
# test summary: fraction of GFP-LC3-positive cells (≥5 vesicles/cell); higher = more autophagosome accumulation
Whole data set: some 1,700 compounds, median “fraction of GFP-LC3-positive cells (≥5 vesicles/cell)” near 0.43, cut for the highest 2% near 0.81. What follows is part of a selection rich in the highest values, with near analogues and random picks from the rest.
readout kind: fraction of GFP-LC3-positive cells

compound: CNC(C)CCC=C(C)C.CNC(C)CCC=C(C)C.O=C(O)C(O)C(O)C(O)C(O)C(=O)O (configuration not stated) [Isometheptene mucate]
readout kind: fraction of GFP-LC3-positive cells
endpoint value: 0.479
//
compound: CC(C)NC[C@H](O)c1ccc(O)c(O)c1.Cl [(-)-Isoproterenol hydrochloride]
readout kind: fraction of GFP-LC3-positive cells
endpoint value: 0.349
//
compound: C=C1c2c(Cl)ccc(O)c2C(=O)C2=C(O)[C@]3(O)C(=O)C(C(N)=O)=C(O)[C@@H](N(C)C)[C@@H]3[C@@H](O)C12.O=C(O)c1cc(S(=O)(=O)O)ccc1O (some centres not stated) [Meclocycline sulfosalicylate]
readout kind: fraction of GFP-LC3-positive cells
endpoint value: 0.345
//
compound: COc1cc(C(=O)OCCCN2CCCN(CCCOC(=O)c3cc(OC)c(OC)c(OC)c3)CC2)cc(OC)c1OC.Cl.Cl [Dilazep dihydrochloride]
readout kind: fraction of GFP-LC3-positive cells
endpoint value: 0.699
//
compound: COc1cc(/C=C/C(=O)N2CCC=CC2=O)cc(OC)c1OC
readout kind: fraction of GFP-LC3-positive cells
endpoint value: 0.901
//
compound: CO[C@@H]1[C@H](N(C)C(=O)c2ccccc2)C[C@H]2O[C@]1(C)n1c3ccccc3c3c4c(c5c6ccccc6n2c5c31)C(=O)NC4
readout kind: fraction of GFP-LC3-positive cells
endpoint value: 0.636
//
compound: O=C(CCNNC(=O)c1ccncc1)NCc1ccccc1 [Nialamide]
readout kind: fraction of GFP-LC3-positive cells
endpoint value: 0.406

----------
# Test system: CbCln3 Δex7/8/Δex7/8 GFP-LC3 cerebellar neuronal cells
# test summary: fraction of GFP-LC3-positive cells (≥5 vesicles/cell); higher = more autophagosome accumulation
In all, about 1,700 compounds were measured (“fraction of GFP-LC3-positive cells (≥5 vesicles/cell)”: median about 0.43, highest 2% from about 0.81 on). This is one part of a sample in which the highest values are shown more often than they occur.
In this section we review reported fraction of GFP-LC3-positive cells values for a set of molecules.

molecule: CCN(CC)Cc1cc(Nc2ccnc3cc(Cl)ccc23)ccc1O.Cl.Cl.O.O [Amodiaquin dihydrochloride dihydrate]
fraction of GFP-LC3-positive cells: 0.513
--
molecule: COC(=O)/C=C/c1cc(O)ccc1O
fraction of GFP-LC3-positive cells: 0.924
--
molecule: CCN(CC)CCCC(C)Nc1ccnc2cc(Cl)ccc12.O=P(O)(O)O.O=P(O)(O)O (stereo unspecified) [Chloroquine diphosphate]
fraction of GFP-LC3-positive cells: 0.518
--
molecule: Clc1cccc(Nc2nnc(-c3ccccc3)c3ccccc23)c1
fraction of GFP-LC3-positive cells: 0.522
--
molecule: O=P(O)(O)C(O)c1ccc2ccccc2c1 (stereo unspecified)
fraction of GFP-LC3-positive cells: 0.425
--
molecule: CN/C(=N/CCSCc1nc[nH]c1C)NC#N
fraction of GFP-LC3-positive cells: 0.473
--
molecule: CCN(CC)CCCC(C)Nc1c2ccc(Cl)cc2nc2ccc(OC)cc12.Cl.Cl.O.O (stereo unspecified) [Quinacrine dihydrochloride dihydrate]
fraction of GFP-LC3-positive cells: 0.866
--
molecule: CCCCCCCCCCCCCCC[C@@H](O)[C@@H](N)CO
fraction of GFP-LC3-positive cells: 0.515
--
molecule: C[C@]12C=CC(=O)C=C1CC[C@@H]1[C@@H]2[C@@H](O)C[C@@]2(C)[C@H]1CC[C@]2(O)C(=O)CO
fraction of GFP-LC3-positive cells: 0.183
--
molecule: NS(=O)(=O)c1cc2c(cc1C(F)(F)F)NCNS2(=O)=O [Hydroflumethiazide]
fraction of GFP-LC3-positive cells: 0.451
--
molecule: CCN(CC)CCOC(=O)c1ccc(N)cc1.Cl [Procaine hydrochloride]
fraction of GFP-LC3-positive cells: 0.483

Data provenance: the supplement of paper PMC6953052
